Data origin, for the record: paper PMC11637378

Form field: Offscreen_42hr (one value per entry).
# Test system: parent strain (SAWy518)

For orientation, consider the following solved cases.
>>> meas_value("COC1=C(CC=C(C)C)C(=O)c2ccccc2C1=O [Lapachol methyl ester]")
0.9749
>>> meas_value("NCC(=O)Nc1ccc(-n2nc(C(F)(F)F)cc2-c2ccc3c(ccc4ccccc43)c2)cc1 [OSU-03012 (AR-12)]")
0.9195
>>> meas_value("CC(Cc1ccc(O)c(O)c1)C(C)Cc1ccc(O)c(O)c1 (stereo not drawn) [Nordihydroguaiaretic acid, reference compound]")
0.9699
>>> meas_value("O=[N+]([O-])c1ccc(O)c2ncccc12 [NITROXOLINE]")
0.0729
>>> meas_value("C=CC[C@@H]1/C=C(\\C)C[C@H](C)C[C@H](OC)[C@H]2O[C@@](O)(C(=O)C(=O)N3CCCC[C@H]3C(=O)O[C@H](/C(C)=C/[C@@H]3CC[C@@H](O)[C@H](OC)C3)[C@H](C)[C@@H](O)CC1=O)[C@H](C)C[C@@H]2OC [TACROLIMUS]")
0.9661
>>> meas_value("C[C@@H]1CC[C@H]2[C@@H](C)C(=O)O[C@@H]3O[C@@]4(C)CC[C@@H]1[C@]32OO4 [ARTEMISININ]")
0.8396
>>> meas_value("CCN(CC)C(=O)[C@]1(c2ccccc2)C[C@@H]1CN.Cl [Milnacipran hydrochloride]")
0.9801
>>> meas_value("CCC(C)n1ncn(-c2ccc(N3CCN(c4ccc(OC[C@H]5CO[C@](Cn6cncn6)(c6ccc(Cl)cc6Cl)O5)cc4)CC3)cc2)c1=O (stereo partly drawn) [Itraconazole (Sporanox)]")
0.8998

Qu. Lab note: parent strain (SAWy518) assay, enter Offscreen_42hr for C=CC(C1=CC(=O)C(OC)=CC1=O)c1ccc(O)cc1 (stereo not drawn) [Dalbergione,4-methoxy-4-hydroxy-] here
Ans. 0.9703

Qu. Lab note: parent strain (SAWy518) assay, enter Offscreen_42hr for CCC[C@H](NC(=O)/C(C#N)=C/c1cccc(Br)n1)c1ccccc1 [WP1130] here
Ans. 0.9253

Qu. Lab note: parent strain (SAWy518) assay, enter Offscreen_42hr for CC(C)Cn1cnc2c(N)nc3ccccc3c21 [Imiquimod] here
Ans. 0.9751

Qu. Lab note: parent strain (SAWy518) assay, enter Offscreen_42hr for O=c1cc(-c2ccc(O)cc2)oc2cc(O)cc(O)c12 [Apigenin] here
Ans. 0.9646

====

# Test system: parent strain (SAWy518)
Form field: OffScreen_percentage (one value per entry).
// note: answer is a bare numeric in percentage

>>> meas_value("CC[C@@H](C(=O)[C@@H](C)[C@@H](O)[C@H](C)[C@@H]1O[C@@H]([C@@H](CC)C(=O)O)CC[C@@H]1C)[C@H]1O[C@]2(C=C[C@@H](O)[C@]3(CC[C@@](C)([C@H]4CC[C@](O)(CC)[C@H](C)O4)O3)O2)[C@H](C)C[C@@H]1C [Salinomycin]")
99.2937
>>> meas_value("C/C=C(/C(=C/C)c1ccc(O)cc1)c1ccc(O)cc1 [Dienestrol]")
99.2565
>>> meas_value("O=C1NC(=O)c2c1c(-c1ccccc1)cc1[nH]c3ccc(O)cc3c21 [PD-407824]")
93.3457

Qu. Lab note: parent strain (SAWy518) assay, enter OffScreen_percentage for C=CC(C1=CC(=O)C(OC)=CC1=O)c1ccc(O)cc1 (centres unmarked) [Dalbergione,4-methoxy-4-hydroxy-] here
Ans. 102.367

Qu. Lab note: parent strain (SAWy518) assay, enter OffScreen_percentage for c1ccc2c(c1)Nc1ccccc1S2 [Phenothiazine] here
Ans. 91.2763

====

Each entry below carries its measured Offscreen_18hr, system: parent strain (SAWy518).
# respond with the number and nothing more

For orientation, consider the following solved cases.
>>> meas_value("N#Cc1c(O)c2c(-c3ccc(-c4ccccc4O)cc3)csc2[nH]c1=O")
0.8233
>>> meas_value("NCCS(=O)(=O)O")
0.8404
>>> meas_value("CO[C@H]1C[C@@H]2CC[C@@H](C)[C@@](O)(O2)C(=O)C(=O)N2CCCC[C@H]2C(=O)O[C@H]([C@H](C)C[C@@H]2CC[C@@H](O)[C@H](OC)C2)CC(=O)[C@H](C)/C=C(\\C)[C@@H](O)[C@@H](OC)C(=O)[C@H](C)C[C@H](C)/C=C/C=C/C=C/1C [SIROLIMUS]")
0.341
>>> meas_value("Br.Br.N=C(N)SCCN [AMINOETHYLISOTHIOUREA DIHYDROBROMIDE]")
0.0502
>>> meas_value("CCOC(=O)[C@H](C)C[C@@H](Cc1ccc(-c2ccccc2)cc1)NC(=O)CCC(=O)O")
0.844
>>> meas_value("CCC(C)n1ncn(-c2ccc(N3CCN(c4ccc(OC[C@H]5CO[C@](Cn6cncn6)(c6ccc(Cl)cc6Cl)O5)cc4)CC3)cc2)c1=O (stereo partly shown) [Itraconazole (Sporanox)]")
0.7339

Qu. Lab note: parent strain (SAWy518) assay, enter Offscreen_18hr for CCCc1c(-c2ccc(O)cc2)nn(-c2ccc(O)cc2)c1-c1ccc(O)cc1 here
Ans. 0.7989

Qu. Lab note: parent strain (SAWy518) assay, enter Offscreen_18hr for CS(=O)(=O)c1ccc(C2=C(c3ccccc3)C(=O)OC2)cc1 [Rofecoxib, reference compound] here
Ans. 0.8386

Qu. Lab note: parent strain (SAWy518) assay, enter Offscreen_18hr for O=C1C[C@@H](c2ccc(O)cc2)Oc2cc(O)cc(O)c21 here
Ans. 0.824

Qu. Lab note: parent strain (SAWy518) assay, enter Offscreen_18hr for O=C(O)/C=C/C=C/c1ccccc1 here
Ans. 0.6813

Qu. Lab note: parent strain (SAWy518) assay, enter Offscreen_18hr for O=[N+]([O-])c1ccc(O)c2ncccc12 here
Ans. 0.0416

====

Each entry below carries its measured OffScreen_percentage, system: parent strain (SAWy518).
// note: answer is a bare numeric in percentage

For orientation, consider the following solved cases.
>>> meas_value("COc1cc(C(=O)NS(=O)(=O)c2ccccc2C)ccc1Cc1cn(C)c2ccc(NC(=O)OC3CCCC3)cc12")
103.829
>>> meas_value("COc1c(O)cc2oc3cc(O)c(CC=C(C)C)c(O)c3c(=O)c2c1CC=C(C)C")
89.9628
>>> meas_value("OC(Cn1cncn1)(Cn1cncn1)c1ccc(F)cc1F")
99.6283
>>> meas_value("CCOc1nc2cccc(C(=O)OC(C)OC(=O)OC3CCCCC3)c2n1Cc1ccc(-c2ccccc2-c2nnn[nH]2)cc1 (stereo not shown)")
98.0917

Qu. Lab note: parent strain (SAWy518) assay, enter OffScreen_percentage for COc1ccc2c(c1)OCc1c-2oc2cc(OC)ccc12 [Dehydrovariabilin] here
Ans. 93.7794

Qu. Lab note: parent strain (SAWy518) assay, enter OffScreen_percentage for C=CC[C@@H]1/C=C(\C)C[C@H](C)C[C@H](OC)[C@H]2O[C@@](O)(C(=O)C(=O)N3CCCC[C@H]3C(=O)O[C@H](/C(C)=C/[C@@H]3CC[C@@H](O)[C@H](OC)C3)[C@H](C)[C@@H](O)CC1=O)[C@H](C)C[C@@H]2OC here
Ans. 90.0867

Qu. Lab note: parent strain (SAWy518) assay, enter OffScreen_percentage for CC(C)Cn1cnc2c(N)nc3ccccc3c21 here
Ans. 103.68

====

Each entry below carries its measured Offscreen_24hr, system: parent strain (SAWy518).
# respond with the number and nothing more

For orientation, consider the following solved cases.
>>> meas_value("CCCCCCCCc1ccc(CCC(N)(CO)CO)cc1.Cl")
0.0624
>>> meas_value("COc1cc(C)c2c(=O)c(-c3ccccc3)coc2c1")
0.8867
>>> meas_value("CC[C@@H](C(=O)[C@@H](C)[C@@H](O)[C@H](C)[C@@H]1O[C@@H]([C@@H](CC)C(=O)[O-])CC[C@@H]1C)[C@H]1OC2(C=C[C@@H](O)[C@]3(CC[C@@](C)([C@H]4CC[C@](O)(CC)[C@H](C)O4)O3)O2)[C@H](C)C[C@@H]1C.[Na+] (stereo partly drawn) [SALINOMYCIN, SODIUM]")
0.2295

Qu. Lab note: parent strain (SAWy518) assay, enter Offscreen_24hr for CC[C@H](C(=O)[C@H](C)[C@@H](O)[C@@H](C)[C@@H]1O[C@@H]([C@@H](CC)C(=O)O)CC[C@H]1C)[C@H]1O[C@]2(C=C[C@@H](O)[C@]3(CC[C@@](C)([C@H]4CC[C@](O)(CC)[C@H](C)O4)O3)O2)[C@H](C)C[C@H]1C here
Ans. 0.892

Qu. Lab note: parent strain (SAWy518) assay, enter Offscreen_24hr for N#CC(=C(\N)Sc1ccccc1N)/C(C#N)=C(/N)Sc1ccccc1N here
Ans. 0.8786

Qu. Lab note: parent strain (SAWy518) assay, enter Offscreen_24hr for CC(C(=O)O)c1ccc2c(c1)[nH]c1ccc(Cl)cc12 (stereo not drawn) [CARPROFEN] here
Ans. 0.8523

Qu. Lab note: parent strain (SAWy518) assay, enter Offscreen_24hr for COc1c(C)c2c(c(O)c1C/C=C(\C)CCC(=O)O)C(=O)OC2 [Mycophenolic (Mycophenolate)] here
Ans. 0.8532

Qu. Lab note: parent strain (SAWy518) assay, enter Offscreen_24hr for CCn1cc(-c2ccnc3[nH]c(-c4cccc(CN(C)C)c4)cc23)c(-c2ccc(NC(=O)N(C)C)cc2)n1 here
Ans. 0.8818

Qu. Lab note: parent strain (SAWy518) assay, enter Offscreen_24hr for O=C1Nc2ccccc2/C1=C1/Nc2ccccc2/C1=N\O here
Ans. 0.8248

Qu. Lab note: parent strain (SAWy518) assay, enter Offscreen_24hr for O=C(O)Cn1c(C(=O)Nc2nc(-c3ccccc3Cl)cs2)cc2ccccc21 here
Ans. 0.9051

Qu. Lab note: parent strain (SAWy518) assay, enter Offscreen_24hr for COc1cc(C(=O)NS(=O)(=O)c2ccccc2C)ccc1Cc1cn(C)c2ccc(NC(=O)OC3CCCC3)cc12 here
Ans. 0.9188

Qu. Lab note: parent strain (SAWy518) assay, enter Offscreen_24hr for CC(C)(Oc1ccc(C2CC2(Cl)Cl)cc1)C(=O)O (stereo not drawn) [Ciprofibrate] here
Ans. 0.866

Qu. Lab note: parent strain (SAWy518) assay, enter Offscreen_24hr for O=[N+]([O-])/C=C/c1ccc2c(c1)OCO2 here
Ans. 0.4675

Qu. Lab note: parent strain (SAWy518) assay, enter Offscreen_24hr for Cc1ccccc1-c1cc(N2CCN(C)CC2)ncc1N(C)C(=O)C(C)(C)c1cc(C(F)(F)F)cc(C(F)(F)F)c1 here
Ans. 0.9137

Qu. Lab note: parent strain (SAWy518) assay, enter Offscreen_24hr for OC(Cn1cncn1)(Cn1cncn1)c1ccc(F)cc1F [FLUCONAZOLE] here
Ans. 0.8873
